- System: Yap1 mRNA
- assay_summary: Antisense inhibition of human Yap1 in A-431 cells by cEt gapmers, single dose (Example 1, RTS4814)
- Format: cell-based
- settings: A-431 cells, 5,000 cells per well, free uptake, 2,000 nM modified oligonucleotide, approx. 48 hours, RTS4814, normalized to RIBOGREEN; Table 3
Strand notation (5' to 3'): a small letter for the sugar, then the base; units joined by * are phosphorothioate-linked, units joined directly phosphodiester-linked; [ ] holds rarer units or linkages, { } end groups; capitals alone tell only the bases. k = constrained ethyl (cEt); [5mC] = 5-methylcytosine; d = 2'-deoxy (DNA)
observed_property: YAP1 (% UTC)
Express your answer in % UTC, writing the number without its unit.

Example cases with answers are listed next.
| substance | YAP1 (% UTC) |
| --- | --- |
| 715552 (kA*kA*kA*dT*dA*dG*dG*dA*dA*dG*dT*dT*dG*kT*kT*kG; antisense) [Compound 715552] | 86 |
| 715534 (kT*k[5mC]*k[5mC]*d[5mC]*d[5mC]*dA*dG*dG*dT*d[5mC]*dA*dG*d[5mC]*kA*kT*kG; antisense) [Compound 715534] | 112 |
| 715480 (antisense kG*kG*kA*dA*dA*d[5mC]*d[5mC]*dA*dT*dT*dA*dT*dT*kA*k[5mC]*kT) [Compound 715480] | 23 |

Record 715615 (antisense k[5mC]*kG*kG*dA*dT*dA*dA*dA*dA*dA*dT*dT*dA*k[5mC]*kT*kT) [Compound 715615] . Reported YAP1 (% UTC): 94

Record 715585 (kA*kA*kG*dG*dT*d[5mC]*dT*dG*dG*dA*dA*d[5mC]*dA*kG*kA*kT; antisense) [Compound 715585] . Reported YAP1 (% UTC): 73

Record 715507 (antisense kT*kG*kG*dG*dA*dT*dT*dG*dA*dT*dA*dT*dT*k[5mC]*k[5mC]*kG) [Compound 715507] . Reported YAP1 (% UTC): 95

Record 715633 (kG*kT*kG*dA*dT*dA*dG*dG*dT*dG*d[5mC]*d[5mC]*dA*k[5mC]*kT*kA; antisense) [Compound 715633] . Reported YAP1 (% UTC): 78

Record 715498 (antisense kT*kG*kA*dA*d[5mC]*d[5mC]*d[5mC]*dT*dT*dG*dA*dA*dA*kA*kT*kA) [Compound 715498] . Reported YAP1 (% UTC): 91
